// cross-study collection: IC50 for PDE1A (Homo sapiens)
# note: boundary value 0.5 nM maps to Not met; IC50 below it maps to Met

Solved cases below.
CCCOc1ncccc1-c1cc(NCc2ncn(C)n2)c2c(C(C)C)nc(C)n2n1 ... Not met
CCCCn1c(=O)c2nnc(C3(C4CC4)CC3)n2c2ncc(C)cc21 ... Met
Cc1nn(C(C)C)c2c3cc(nc12)-c1cccnc1OCCCCOc1cccnc1CN3 ... Met
Cc1cn2c(C3CCOCC3)ncc2c(=O)n1Cc1ccc2c(c1)OCO2 ... Not met

Turning now to a further compound:
Input: Criterion: IC50 strictly below 0.5 nM. Is it met by `Cc1nn2c(C3CCOCC3)ncc2c(=O)n1Cc1cccc(Cl)c1` ?
Output: Not met
